ASSAYED_TARGET: SARS-COV-2 RBD extracellular domain expressed with a C-terminal mouse IgG2a Fc (SARS-CoV-2)
EXPERIMENTAL_DETAILS: Biacore SPR, mAb captured on anti-hFc, 25 C
Assignment: determine reported kon for the given binders.
Give bare numbers, in M⁻¹ s⁻¹.

| BINDER | RESULT |
| --- | --- |
| mAb15163 (antibody, V domains shown) VH: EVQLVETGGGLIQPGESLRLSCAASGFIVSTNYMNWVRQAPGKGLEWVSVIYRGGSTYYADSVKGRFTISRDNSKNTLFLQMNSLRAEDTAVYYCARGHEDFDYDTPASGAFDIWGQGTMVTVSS VL: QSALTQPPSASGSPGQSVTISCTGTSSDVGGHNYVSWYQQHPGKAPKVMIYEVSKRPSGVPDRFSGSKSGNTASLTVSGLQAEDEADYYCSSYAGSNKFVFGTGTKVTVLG | 930000 |

Give kon for each listed item.
1. mAb14281 (antibody, V domains shown) VH: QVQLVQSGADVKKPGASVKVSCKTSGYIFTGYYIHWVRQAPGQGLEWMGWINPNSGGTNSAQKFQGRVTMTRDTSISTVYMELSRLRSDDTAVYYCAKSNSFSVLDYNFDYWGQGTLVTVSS VL: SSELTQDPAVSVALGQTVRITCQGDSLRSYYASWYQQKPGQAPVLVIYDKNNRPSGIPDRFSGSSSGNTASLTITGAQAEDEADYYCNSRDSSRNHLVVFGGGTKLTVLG
2. mAb14315 (antibody, V domains shown) VH: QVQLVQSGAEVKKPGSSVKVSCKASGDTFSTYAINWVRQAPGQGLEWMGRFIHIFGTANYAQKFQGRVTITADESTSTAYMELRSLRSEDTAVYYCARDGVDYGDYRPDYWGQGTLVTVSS VL: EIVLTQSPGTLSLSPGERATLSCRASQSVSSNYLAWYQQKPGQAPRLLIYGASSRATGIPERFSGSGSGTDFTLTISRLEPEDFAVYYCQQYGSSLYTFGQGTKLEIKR

1. 1.46e+06
2. 799000
